Test system: Bacillus subtilis
Experiment: Antibacterial activity against Bacillus subtilis ATCC 6051 after 24 hrs by two-fold broth microdilution method
Type: functional
Settings: ATCC 6051, 24 h
I'd be grateful if you could share measured MIC for these entries.

Q) Which MIC is reported with Bacillus subtilis for this entry: Clc1ccccc1-c1nn2c(/C=N/C3CC3)c(-c3ccc(Br)cc3)nc2s1 ?
A) 200 mg/L

Q) Entry to check: O=C(/C=C/c1c(-c2ccc(Br)cc2)nc2sc(-c3ccccc3Cl)nn12)c1cccs1
A) > 200 mg/L

Q) Then what about the compound O=C(/C=C/c1c(-c2ccc(Br)cc2)nc2sc(-c3ccccc3Br)nn12)c1ccccc1 ?
A) > 200 mg/L

Q) Param item: Clc1ccccc1-c1nn2c(/C=N/C3CCCCC3)c(-c3ccc(Br)cc3)nc2s1
A) 200 mg/L

Q) Similarly, Brc1ccc(-c2nc3sc(-c4ccc(I)cc4)nn3c2/C=N/C2CC2)cc1 ?
A) 200 mg/L

Q) What about this compound? COc1ccc(-c2nn3c(/C=N/C4CC4)c(-c4ccc(Br)cc4)nc3s2)cc1
A) 200 mg/L

Q) Then Cc1ccc(C(=O)/C=C/c2c(-c3ccc(Br)cc3)nc3sc(-c4ccccc4Cl)nn23)cc1 ?
A) > 200 mg/L

Hey, just so you know, these numbers are from ChEMBL document CHEMBL3414553.
